testSystem: recombinant autotaxin (Homo sapiens)
measurementDescription: Autotaxin test (enzyme test), Amplex Red fluorescence
experimentalParameters: IC50 ranges; LPC 75 μM; read-out: Autotaxin inhibition IC50
Catalogue of IC50 values
measuredMetric: IC50

{"compound": "CNC(=O)CNc1c2c(nc3ccccc13)CCN(CC(=O)Nc1cc(Cl)ccc1OC)C2 [Compound 8]", "reportedResult": "100 to 1000 nM"}
{"compound": "COc1ccc(Cl)cc1NC(=O)CN1CCc2nc3ccccc3c(Nc3ccncc3)c2C1 [Compound 20]", "reportedResult": "> 1000 nM"}
{"compound": "COc1ccc(Cl)cc1NC(=O)CN1CCc2nc3ccccc3c(N)c2C1 [Compound 2]", "reportedResult": "> 1000 nM"}
{"compound": "COc1ccc(Cl)cc1NC(=O)CN1CCc2nc3ccccc3c(NCC(=O)N3CCN(C)CC3)c2C1 [Compound 16]", "reportedResult": "100 to 1000 nM"}
{"compound": "COc1ccc(Cl)cc1NC(=O)COC(=O)N1CCc2nc3ccccc3c(NCCO)c2C1 [Compound 7]", "reportedResult": "> 1000 nM"}
{"compound": "COc1ccc(Cl)cc1NC(=O)CN1CCc2nc3ccccc3c(NCCO)c2C1 [Compound 4]", "reportedResult": "100 to 1000 nM"}
